# measurement-target: UniProt P56817
# Sequence (P56817 whole entry): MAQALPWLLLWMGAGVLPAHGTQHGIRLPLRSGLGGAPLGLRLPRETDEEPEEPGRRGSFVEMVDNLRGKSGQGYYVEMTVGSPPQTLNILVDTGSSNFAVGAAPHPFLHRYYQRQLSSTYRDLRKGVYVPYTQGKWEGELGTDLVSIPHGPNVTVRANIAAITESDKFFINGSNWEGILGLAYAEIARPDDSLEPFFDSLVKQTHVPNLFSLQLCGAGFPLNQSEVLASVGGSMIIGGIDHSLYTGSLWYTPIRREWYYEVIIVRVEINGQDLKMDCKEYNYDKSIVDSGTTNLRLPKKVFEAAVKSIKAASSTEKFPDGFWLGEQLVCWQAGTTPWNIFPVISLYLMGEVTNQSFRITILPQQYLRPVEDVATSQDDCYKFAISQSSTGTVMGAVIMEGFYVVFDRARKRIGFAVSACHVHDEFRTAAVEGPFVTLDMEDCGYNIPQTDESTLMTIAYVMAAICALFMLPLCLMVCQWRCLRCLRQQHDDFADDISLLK
# experimental-details: In Vivo Inhibition of Beta-Secretase: Several animal models, including mouse, rat, dog, and monkey, may be used to screen for inhibition of beta-secretase activity in vivo following administration of a test compound sample. Animals used in this invention can be wild type, transgenic, or gene knockout animals. For example, the Tg2576 mouse model, prepared and conducted as described in Hsiao et al., 1996, Science 274, 99-102, and other non-transgenic or gene knockout animals are useful to analyze in vivo inhibition of Amyloid beta peptide (Abeta) production in the presence of inhibitory test compounds. Generally, 2 to 18 month old Tg2576 mice, gene knockout mice or non-transgenic animals are administered test compounds formulated in vehicles, such as cyclodextran, phosphate buffers, hydroxypropyl methylcellulose or other suitable vehicles. One to twenty-four hours following the administration of compound, animals are sacrificed, and brains as well as cerebrospinal fluid (CSF) and plasma are removed for analysis of A-beta levels and drug or test compound concentrations (Dovey et al., 2001, Journal of Neurochemistry, 76, 173-181) Beginning at time 0, animals are administered by oral gavage, or other means of delivery such as intravenous injection, an inhibitory test compound of up to 100 mg/kg in a standard, conventional formulation, such as 2% hydroxypropyl methylcellulose, 1% Tween80. A separate group of animals receive 2% hydroxypropyl methylcellulose, 1% Tween80 alone, containing no test compound, and serve as a vehicle-control group. At the end of the test period, animals are sacrificed and brain tissues, plasma or cerebrospinal fluid are collected. Brains are either homogenized in 10 volumes (w/v) of 0.2% diethylamine (DEA) in 50 mM NaCl (Best et al., 2005, Journal of Pharmacology and Experimental Therapeutics, 313, 902-908), or in 10 volumes of 0.5% TritonX-100 in Tris-buffered saline (pH at about 7.6). Homogenates are centrifuged at 355,000 g, 4° C. for 30 minutes. CSF or brain supernatants are then analyzed for the presence of A-beta peptide by specific sandwich ELISA assays based on ECL (Electrochemiluminescence) technology.
# Type: organism-based
IC50: recorded values
parameter-measured: IC50 (nM)

INSERT INTO assay_data (input_smiles, parameter_measured, reported) VALUES
  ('Cc1cc(C#N)cnc1C(=O)Nc1ccc(F)c([C@]2(C)CS(=O)(=O)C3(CCC3)C(N)=N2)c1', 'IC50', 0.76),
  ('Cc1cc(Cl)cnc1C(=O)Nc1ccc(F)c([C@]2(C)CS(=O)(=O)C3(CCC3)C(N)=N2)c1', 'IC50', 1.6);

meta.source: ChEMBL document CHEMBL5725463
